Where do these numbers come from? They come from ChEMBL document CHEMBL1201862.

# Tested on: ACHN
# Test Details: NCI tumour cell line growth inhibition, 48 h
Activity calls are given as the source filed them. Cut-off read from the data, not from the text of the source: active = GI50 up to about 1.1 µM and inactive = higher.
Classes used: active, inactive

INSERT INTO measurements (compound, label_value) VALUES
  ('O=C(/C=C/c1cccs1)c1ccc([N+](=O)[O-])cc1', 'inactive'),
  ('O=C(NCC1Nc2ccncc2S(=O)(=O)N1)c1ccc(Br)cc1 (stereo unspecified)', 'inactive'),
  ('COc1cccc(C2CC23C(=O)NC(=O)NC3=O)c1 (stereo unspecified)', 'inactive'),
  ('NNC(=O)Nc1nc2ccc(NN)cc2[nH]1', 'inactive'),
  ('CNC(=O)OCc1c2ccncc2c(C)c2c1[nH]c1ccccc12', 'active'),
  ('OCc1ccc2c(c1)CC1(C2)Cc2cc3c(cc2C1O)CCC3 (stereo unspecified)', 'inactive');
